# Assay System: T1, hCMV gH, gL, UL128, UL130 and UL131A co-expressed in HEK293T cells (human cytomegalovirus, UniProt P12824 24-743; P16832 31-278; P16837 1-171; P16772 1-214)
# T1 construct: whole, on cells; also called gH + gL + UL128 + UL130 + UL131A; gH/gL/UL128-130 complex
# Assay Text: cell cross-competition, 20x excess; competitor 5A2-biotin
Readout Type: Inhibition of binding (%)

Binder	Readout Type	Result Unit	Measured
15D8 (antibody, V domains shown, human IgG mAb; also called 15D8-biotin) VH: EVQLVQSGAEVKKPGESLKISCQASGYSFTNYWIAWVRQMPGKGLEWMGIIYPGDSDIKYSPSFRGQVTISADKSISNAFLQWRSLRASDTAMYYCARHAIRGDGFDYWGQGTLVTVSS VL: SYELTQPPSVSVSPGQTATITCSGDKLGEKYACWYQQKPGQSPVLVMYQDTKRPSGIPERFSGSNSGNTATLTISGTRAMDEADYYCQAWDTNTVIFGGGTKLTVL	Inhibition of binding (%)	%	0
4N10 (antibody, V domains shown, human IgG mAb; also called 4N10-biotin) VH: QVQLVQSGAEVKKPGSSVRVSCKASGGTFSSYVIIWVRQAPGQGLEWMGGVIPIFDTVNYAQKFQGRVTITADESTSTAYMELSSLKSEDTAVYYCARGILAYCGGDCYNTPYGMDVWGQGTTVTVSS VL: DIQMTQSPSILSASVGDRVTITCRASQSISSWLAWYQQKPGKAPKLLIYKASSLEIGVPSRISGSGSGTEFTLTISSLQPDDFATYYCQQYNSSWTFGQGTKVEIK	Inhibition of binding (%)	%	100
2C12 (antibody, V domains shown, human IgG mAb; also called 2C12-biotin) VH: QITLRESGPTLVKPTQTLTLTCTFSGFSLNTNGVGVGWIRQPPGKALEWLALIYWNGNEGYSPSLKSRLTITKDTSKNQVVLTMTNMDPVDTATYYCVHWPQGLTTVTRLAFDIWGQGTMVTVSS VL: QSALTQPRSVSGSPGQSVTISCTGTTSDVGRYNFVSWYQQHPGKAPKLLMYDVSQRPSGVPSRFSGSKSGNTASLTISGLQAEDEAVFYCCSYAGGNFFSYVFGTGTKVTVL	Inhibition of binding (%)	%	0
10F7 (antibody, V domains shown, human IgG mAb; also called 10F7-biotin) VH: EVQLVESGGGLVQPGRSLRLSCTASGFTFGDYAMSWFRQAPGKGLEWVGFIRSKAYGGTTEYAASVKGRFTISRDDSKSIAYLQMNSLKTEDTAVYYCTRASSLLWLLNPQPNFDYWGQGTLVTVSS VL: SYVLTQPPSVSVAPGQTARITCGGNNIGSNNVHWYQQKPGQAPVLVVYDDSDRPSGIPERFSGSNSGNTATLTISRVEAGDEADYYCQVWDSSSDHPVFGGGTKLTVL	Inhibition of binding (%)	%	0
